This section presents molecules with their documented absorption maximum values.
assay: solvent given as SMILES; details: in CC#N
Reply with the number and its unit after it.

Some entries whose results are on file:
* CN(c1ccccc1)c1ccc(/C=C2\C(=O)c3ccccc3S2(=O)=O)cc1 | 471 nm
* Cc1cc(C)c(C2=C3C=c4c(c5ccc(C(C)(C)C)cc5c5cc(C(C)(C)C)ccc45)=[N+]3[B-](F)(F)n3c2cc2c4ccc(C(C)(C)C)cc4c4cc(C(C)(C)C)ccc4c23)c(C)c1 | 686 nm

Please look at the following molecule next.
Please fill in: absorption maximum reported for Cc1ccc(NC(=O)c2sc(Br)nc2C)cc1 = 281.6 nm

* * *

experiment: solvent given as SMILES; conditions: in CO
assay-endpoint: absorption maximum (nm)
Give just the number in nm; leave the unit off.

Some entries whose results are on file:
• COC1=[N+]2C(=C(c3ccc(C)cc3)c3ccc(OC)n3[B-]2(F)F)C=C1 = 510
• CC1=CC(C)=[N+]2C1=C(c1ccccc1)c1c(C)c(-c3cccs3)c(C)n1[B-]2(F)F = 507
• Cc1ccc(-c2nc(-c3ccccc3O)[nH]c2-c2ccc(C)cc2)cc1 = 320
• CN(C)c1ccc(C#Cc2ccccc2)cc1 = 324

Please look at the following compound next.
Please fill in: absorption maximum reported for COc1cnc(-c2cc[n+](C3=C(F)C(F)(F)C(F)(F)[C-]3F)cc2)s1 = 407

* * *

assay: solvent given as SMILES; conditions: in ClC(Cl)Cl
This section presents compounds with their documented absorption maximum values.
Give just the number in nm; leave the unit off.

Some entries whose results are on file:
- c1ccc2c3c(ccc2c1)C1(c2cc(-c4ccc5ccc6cccc7ccc4c5c67)ccc2-c2ccc(-c4ccc5ccc6cccc7ccc4c5c67)cc21)c1ccc2ccccc2c1O3: 365
- O=C1[C@@H]2[C@H](C(=O)N1c1cccc3cc4ccccc4cc13)[C@@H]1C=C[C@H]2C1: 384
- CN(C)c1ccc(C2=[N+]3C(=Nc4c(-c5ccccc5)cc(-c5ccc(N(C)C)cc5)n4[B-]3(F)F)C(c3ccccc3)=C2)cc1: 799
- Cc1cc(-c2ccc(-n3c4ccccc4c4ccccc43)cc2)nc(-c2ccc(-c3ccccc3)cc2)n1: 341

Please look at the following compound next.
Please fill in: absorption maximum reported for c1cc2ccc3cccc4ccc(c1)c2c34 = 337

* * *

This section presents compounds with their documented absorption maximum values.
experiment: solvent given as SMILES; settings: in C1CCOC1
Give just the number in nm; leave the unit off.

Some entries whose results are on file:
- O=Cc1ccc(C2=C3C=c4c(oc5ccccc45)=[N+]3[B-](F)(F)n3c2cc2c4ccccc4oc23)cc1: 589
- COc1ccccc1-c1c(-c2ccccc2O)nc(-c2ccc(C(F)(F)F)cc2)n1-c1ccc(C)cc1: 313
- CN(c1ccccc1)c1ccc(/C=C2\C(=O)c3ccccc3S2(=O)=O)cc1: 468
- O=Cc1cc(O)c(C=O)cc1O: 414
- CCn1c2ccccc2c2cc(-c3cc(-c4ccc5c(c4)c4ccccc4n5CC)nc(OC)n3)ccc21: 366
- CCCCCCCCC1(CCCCCCCC)c2cc(-c3ccc(C(F)(F)F)cc3)ccc2-c2ccc(N(c3ccc(-n4c5ccccc5c5ccccc54)cc3)c3ccc4c(c3)C(CCCCCCCC)(CCCCCCCC)c3cc(-c5ccc(C(F)(F)F)cc5)ccc3-4)cc21: 375
- CC(=O)c1ccc(/N=N/c2ccc(Nc3ccccc3)cc2)cc1: 438
- COc1ccc(C2=CC3=C(c4c(C)cc(C)cc4C)c4cc(-c5ccc(OC)cc5)c(-c5ccc(OC)cc5)n4[B-](F)(F)[N+]3=C2c2ccc(OC)cc2)cc1: 621
- CC(C)(C)c1ccc(C2=C(c3ccc(C(C)(C)C)cc3)C(c3ccc(C(C)(C)C)cc3)=[N+]3C2=C(c2ccccc2)c2c(-c4ccc(C(C)(C)C)cc4)c(-c4ccc(C(C)(C)C)cc4)c(-c4ccc(C(C)(C)C)cc4)n2[B-]3(F)F)cc1: 585
- CN(C)c1ccc(-c2ccc(-c3cc(N4CCCCC4)c(C#N)c4c3-c3ccccc3CC4)s2)cc1: 350

Please fill in: absorption maximum reported for CN(C)c1ccc(C=C/C=C/C=C/c2ccc(C#N)cc2)cc1 = 420

Please fill in: absorption maximum reported for O=P1(c2ccccc2)C(c2ccc(C3=Cc4ccccc4P3(=O)c3ccccc3)cc2)=Cc2ccccc21 (stereo unspecified) = 387

Please fill in: absorption maximum reported for Cc1cccc2[n+]1[B-](F)(F)n1c(c3cccc4cccc1c43)=N2 = 472

Please fill in: absorption maximum reported for O=S(=O)(c1ccc(-c2ccc(-c3nc4c5ccccc5c5ccccc5c4n3-c3ccccc3)cc2)cc1)c1ccc(-c2ccc(-c3nc4c5ccccc5c5ccccc5c4n3-c3ccccc3)cc2)cc1 = 368

Please fill in: absorption maximum reported for CC1CCC(O)(c2ccc(-c3cccs3)s2)CC1 (stereo unspecified) = 341

Please fill in: absorption maximum reported for C(=C\c1cnc2ccccc2n1)/c1ccc(N2CCCCC2)cc1 = 410

* * *

This section presents compounds with their documented absorption maximum values.
test: solvent given as SMILES; details: in CS(C)=O
Give just the number in nm; leave the unit off.

Some entries whose results are on file:
- O=C(/C=C/c1cn(-c2ccccc2)nc1-c1ccccc1)c1c(O)c2ccccc2oc1=O: 401
- Cc1cccn2c1cc1c3ccccc3nc(-c3ccc(Cl)o3)c12: 405
- Cc1cc(C)c(B(c2ccc(-c3ccc(-c4nc5c6ccccc6c6ccccc6c5[nH]4)cc3)cc2)c2c(C)cc(C)cc2C)c(C)c1: 378
- CCN(CC)c1ccc(-c2nc3c(c4c2-c2ccccc2CC4)-c2ccccc2CC3)cc1: 361

Please look at the following compound next.
Please fill in: absorption maximum reported for CCOC(=O)CCCn1c(C(=O)OC)c(C)c2c(=O)n3c(cc21)C(CC)=C(C)C3=O = 397

* * *

experiment: solvent given as SMILES; settings: in ClC(Cl)Cl
assay-endpoint: absorption maximum

Some entries whose results are on file:
• CN(c1ccccc1)c1ccc(/C=C2\C(=O)c3ccccc3S2(=O)=O)cc1 = 479 nm
• CN1C(=CC2=C([O-])C(=Cc3sc4ccccc4[n+]3C)C2=C(C#N)C#N)C(C)(C)c2ccccc21 = 691 nm
• CC[n+]1c(C=C2C(=O)C(C=C3Sc4cc(Cl)ccc4N3C)=C2[O-])[se]c2ccccc21 = 677 nm
• CCCCCCc1cc(-c2ccc3c(c2)C2CCCC2N3c2ccc3c(c2)C(C)(C)c2ccccc2-3)sc1/C=C1\C(=O)c2ccc(C(=O)O)cc2C1=O (centres undefined) = 611 nm

Please fill in: absorption maximum reported for [C-]#[N+]c1ccc(-c2ccc(N(C)C)cc2)cc1 = 331 nm

Please fill in: absorption maximum reported for O=C1C=Cc2cc3ccccc3c(=O)n21 = 353 nm

Please fill in: absorption maximum reported for CC[Si](CC)(CC)c1cc2ccc3cccc4ccc(c1C(=O)NC(C)(C)C)c2c34 = 381 nm

Please fill in: absorption maximum reported for COc1ccc2cc(C3=[N+]4C(=Nc5c(-c6ccccc6)cc(-c6ccc7cc(OC)ccc7c6)n5[B-]4(F)F)C(c4ccccc4)=C3)ccc2c1 = 706 nm

Please fill in: absorption maximum reported for CCCCCCCCC1(CCCCCCCC)c2cc(-c3ccc(C#N)cc3)ccc2-c2ccc(-c3ccc(C#N)cc3)cc21 = 341 nm

* * *

experiment: solvent given as SMILES; details: in ClC(Cl)Cl
Hi, to clarify the labels: label 1 covers absorption maximum from 500 nm upward, label 0 covers anything below 500 nm.

• CCN(CC)c1ccc2cc(/C=C/C3=CC(/C=C/c4cc5ccc(N(CC)CC)cc5oc4=O)=[O+][B-](F)(F)O3)c(=O)oc2c1 = label 1
• Cc1ccc2cc3c(=O)n(C)c(=O)n(C)c3nc2c1 = label 0
• CC[n+]1c(C=C2C(=O)C(C=C3N(C)c4ccccc4C3(C)C)=C2[O-])sc2ccccc21 = label 1
• Cc1nc2c(ccc3c2sc(/C=C/c2ccc(N(c4ccccc4)c4ccccc4)cc2)[n+]3C)s1 = label 1
• F[B-]1(F)n2cccc2C(c2ccccc2)=C2C=CC(c3cccc(OC4=[N+]5C(=C(c6ccccc6)c6cc(Br)c(Br)n6[B-]5(F)F)C=C4Br)c3)=[N+]21 = label 1

Exam item: decide whether the reported absorption maximum for c1ccc(C2CCN3COc4c5ccccc5c5c6c7c(c2c3c46)C(c2ccccc2)CCN7CO5)cc1 (stereo unspecified) is at least 500 nm. label 0

Exam item: decide whether the reported absorption maximum for c1ccc(-c2nc(-c3ccc(-c4nc(-c5ccccc5)c(-c5ccccc5)[nH]4)cc3)[nH]c2-c2ccccc2)cc1 is at least 500 nm. label 0

Exam item: decide whether the reported absorption maximum for CCOC(=O)CCCn1c(C(=O)OC)c(C)c2c(=O)n3c(cc21)C(CC)=C(C)C3=O is at least 500 nm. label 0

Exam item: decide whether the reported absorption maximum for c1cc2ccc3[se]c4ccc5cccc6c(c1)c2c3c4c56 is at least 500 nm. label 0

Exam item: decide whether the reported absorption maximum for CC(C)(C)[Si](C)(C)C#Cc1c2c(=O)c3ccccc3c2c(C#C[Si](C)(C)C(C)(C)C)c2c(=O)c3ccccc3c12 is at least 500 nm. label 1

Exam item: decide whether the reported absorption maximum for CCCCC[n+]1ccc(/C=C/c2ccc(N(C)C)c3ccccc23)c2ccccc21 is at least 500 nm. label 1

Exam item: decide whether the reported absorption maximum for Cc1c2c(c(C)c3ccccc13)-c1c-2ccc2nc3ccccc3nc12 is at least 500 nm. label 0

Exam item: decide whether the reported absorption maximum for C(#Cc1ccncc1)C(C#Cc1ccncc1)=Cc1ccc(C=C(C#Cc2ccncc2)C#Cc2ccncc2)s1 is at least 500 nm. label 1

Exam item: decide whether the reported absorption maximum for CCCCCc1c(Oc2cc(O)cc(CCC(=O)CC)c2C(=O)OC)c(OC)cc(O)c1C(=O)O is at least 500 nm. label 0
